Measured values drawn from patent US9663473B2 for this set.

Catalogue of compounds with associated EC50
biological target: recombinant human ALX receptor (Homo sapiens); assay: Intracellular calcium measurements (FLIPR), ALX receptor agonistic activity; details: HEK293-hALXR-Gα16 cells, Fluo-4 calcium signal, normalized to WKYMVm 10 nM
Kindly answer with a numeric value in nM, unit omitted.

Assign EC50 to the following record: COc1ccc(C[C@@H](NC(=O)NC2CCN(CCc3ccccc3)CC2)c2nc3ccccc3[nH]2)cc1
14

Continuing:
Assign EC50 to the following record: COc1ccc(CC(NC(=O)NCC(F)(F)F)c2nc3ccccc3[nH]2)cc1 (centres unmarked)
450

Assign EC50 to the following record: COc1ccc(CC(NC(=O)NC23CCC(O)(CC2)CC3)c2nc3ccccc3[nH]2)c(F)c1 (single isomer, unassigned; ent-1) [Example 261]
3.2

====

Molecular target: recombinant human ALX receptor (Homo sapiens, UniProt P25090)
Sequence (P25090 1-351): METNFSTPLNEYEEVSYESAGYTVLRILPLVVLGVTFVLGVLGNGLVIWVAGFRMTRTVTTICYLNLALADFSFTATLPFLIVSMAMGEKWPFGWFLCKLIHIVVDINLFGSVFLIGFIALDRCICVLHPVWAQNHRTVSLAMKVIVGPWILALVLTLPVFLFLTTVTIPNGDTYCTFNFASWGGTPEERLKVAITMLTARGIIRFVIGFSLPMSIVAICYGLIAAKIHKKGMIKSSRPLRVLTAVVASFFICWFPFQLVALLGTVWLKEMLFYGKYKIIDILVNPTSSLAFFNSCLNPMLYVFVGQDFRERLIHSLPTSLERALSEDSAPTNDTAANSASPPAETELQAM
Assay: Intracellular calcium measurements (FLIPR), ALX receptor agonistic activity
Details: HEK293-hALXR-Gα16 cells, Fluo-4 calcium signal, normalized to WKYMVm 10 nM
Doc: threshold 100 nM (exclusive). Items with EC50 beneath it return met; others return not met.

Is EC50 strictly under 100 nM for the entry COc1ccc(C[C@@H](NC(=O)NC2CN3CCC2CC3)c2nc3ccccc3[nH]2)cc1 (some centres unmarked) ?
met

Is EC50 strictly under 100 nM for the entry COc1ccc(C[C@@H](NC(=O)N[C@H]2CCc3ccccc32)c2nc3ccccc3[nH]2)cc1 ?
not met

Is EC50 strictly under 100 nM for the entry COc1ccc(C[C@@H](NC(=O)NCc2ccccn2)c2nc3ccccc3[nH]2)cc1 ?
not met

Continuing:
Is EC50 strictly under 100 nM for the entry COc1ccc(C[C@@H](NC(=O)NC2CCCN(C)C2)c2nc3ccccc3[nH]2)cc1 (some centres unmarked) ?
met

Is EC50 strictly under 100 nM for the entry COc1ccc(CC(NC(=O)N[C@H]2CC[C@H](O)CC2)c2nc3cc(C(F)(F)F)ccc3[nH]2)cc1 (relative stereo) ?
met

Is EC50 strictly under 100 nM for the entry COc1ccc(C[C@@H](NC(=O)NC2(c3ccc(Br)cc3)CC2)c2nc3ccccc3[nH]2)cc1 ?
not met

Is EC50 strictly under 100 nM for the entry O=C(NC(Cc1ccc(C(F)(F)F)cc1F)c1nc2cc(F)ccc2[nH]1)N[C@H]1CC[C@H](O)CC1 (single isomer, unassigned; ent-1) ?
met

====

Target: recombinant human ALX receptor (Homo sapiens, UniProt P25090)
Sequence (P25090 1-351): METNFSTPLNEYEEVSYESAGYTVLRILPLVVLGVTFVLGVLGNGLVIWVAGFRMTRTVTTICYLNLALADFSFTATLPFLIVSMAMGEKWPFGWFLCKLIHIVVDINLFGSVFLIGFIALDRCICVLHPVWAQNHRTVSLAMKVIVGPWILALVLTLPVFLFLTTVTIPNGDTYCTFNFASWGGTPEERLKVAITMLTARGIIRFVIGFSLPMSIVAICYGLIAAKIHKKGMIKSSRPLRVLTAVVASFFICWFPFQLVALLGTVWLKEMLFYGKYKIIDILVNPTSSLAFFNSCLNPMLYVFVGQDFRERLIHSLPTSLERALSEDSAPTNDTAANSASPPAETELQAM
Test: Intracellular calcium measurements (FLIPR), ALX receptor agonistic activity
Conditions: HEK293-hALXR-Gα16 cells, Fluo-4 calcium signal, normalized to WKYMVm 10 nM
Counter-ions that a name gives are not always drawn.
Catalogue of compounds with associated pEC50
Entry type: numeric. Quantity: pEC50, the -log10 of concentration in molar units.

Some entries whose results are on file:
With recombinant human ALX receptor (Homo sapiens, UniProt P25090) as the test system, provide measured pEC50 for this compound: COc1ccc(CC(NC(=O)N[C@H]2CC[C@@](C)(O)CC2)c2nc3ccccc3[nH]2)cc1F (relative stereo)
7.01

With recombinant human ALX receptor (Homo sapiens, UniProt P25090) as the test system, provide measured pEC50 for this compound: COc1ccc(C[C@@H](NC(=O)NC2(C)COC2)c2nc3ccccc3[nH]2)cc1
6.20

With recombinant human ALX receptor (Homo sapiens, UniProt P25090) as the test system, provide measured pEC50 for this compound: COc1ccc(C[C@@H](NC(=O)NC2CCN(CCF)CC2)c2nc3ccccc3[nH]2)cc1
7.06

With recombinant human ALX receptor (Homo sapiens, UniProt P25090) as the test system, provide measured pEC50 for this compound: COc1ccc(C[C@@H](NC(=O)NC2CCCc3c(OC)cccc32)c2nc3ccccc3[nH]2)cc1 (stereo partly drawn)
7.25

With recombinant human ALX receptor (Homo sapiens, UniProt P25090) as the test system, provide measured pEC50 for this compound: COc1ccc(C[C@@H](NC(=O)NC[C@H]2CCCC[C@@H]2O)c2nc3ccccc3[nH]2)cc1 (relative stereo)
6.51

Continuing:
With recombinant human ALX receptor (Homo sapiens, UniProt P25090) as the test system, provide measured pEC50 for this compound: COc1ccc(C[C@@H](NC(=O)NC(C)(C)c2ccc(Cl)cc2)c2nc3ccccc3[nH]2)cc1
6.43

With recombinant human ALX receptor (Homo sapiens, UniProt P25090) as the test system, provide measured pEC50 for this compound: COc1ccc(C[C@@H](NC(=O)NC23CCN(CC2)CC3)c2nc3ccccc3[nH]2)cc1
7.12

With recombinant human ALX receptor (Homo sapiens, UniProt P25090) as the test system, provide measured pEC50 for this compound: COc1cc(F)c(CC(NC(=O)N[C@H]2CC[C@](C)(O)CC2)c2nc3ccccc3[nH]2)c(F)c1 (mixture of isomers)
8.46

With recombinant human ALX receptor (Homo sapiens, UniProt P25090) as the test system, provide measured pEC50 for this compound: COc1ccc(CC(NC(=O)NCc2cc(C(C)C)on2)c2nc3ccccc3[nH]2)cc1 (stereo not drawn)
5.79

With recombinant human ALX receptor (Homo sapiens, UniProt P25090) as the test system, provide measured pEC50 for this compound: COc1ccc(C[C@@H](NC(=O)NCCc2cnccn2)c2nc3ccccc3[nH]2)cc1
6.55

With recombinant human ALX receptor (Homo sapiens, UniProt P25090) as the test system, provide measured pEC50 for this compound: COc1ccc(C[C@@H](NC(=O)NCCc2ccccc2F)c2nc3ccccc3[nH]2)cc1 [Example 68, hydrochloride]
6.66

With recombinant human ALX receptor (Homo sapiens, UniProt P25090) as the test system, provide measured pEC50 for this compound: COc1ccc(C[C@@H](NC(=O)NCCN2CCc3ccccc3C2)c2nc3ccccc3[nH]2)cc1
6.66

With recombinant human ALX receptor (Homo sapiens, UniProt P25090) as the test system, provide measured pEC50 for this compound: COc1ccc(C[C@@H](NC(=O)NC(C)(C)c2cccc(C)c2)c2nc3ccccc3[nH]2)cc1
6.34

With recombinant human ALX receptor (Homo sapiens, UniProt P25090) as the test system, provide measured pEC50 for this compound: O=C(NC(Cc1ccc(Br)cc1F)c1nc2ccccc2[nH]1)N[C@H]1CC[C@H](O)CC1 (relative stereo) [Example 188]
8.43

With recombinant human ALX receptor (Homo sapiens, UniProt P25090) as the test system, provide measured pEC50 for this compound: COc1ccc(C[C@@H](NC(=O)NC2CCNCC2)c2nc3ccccc3[nH]2)cc1
7.28
